- testTarget: T1, Recombinant Human DLL4 (delta-like protein 4) (human, UniProt Q9NR61 27-524)
- T1 construct: also called rHuman DLL4
- assayInfo: ELISA, plate-coated DLL4, Fab 50 nM
This section presents binders with their documented ELISA signal at 50 nM Fab values.
reportedEndpoint: ELISA signal at 50 nM Fab

* Fab VH1-46_IGHD6-6*01_IGHJ1*01 S102A/S103P/S104F/H111F (APFF) & L6_IGKJ1*01 S28N/S30D/S31H N53H (Fab, V domains shown, Fab made in E. coli: VH in plasmid A (CH1, His6 and Flag tags), VL in plasmid C (kappa CL); also called H:APFF & L:NDH N53H; APFF / NDH/N53H) VH: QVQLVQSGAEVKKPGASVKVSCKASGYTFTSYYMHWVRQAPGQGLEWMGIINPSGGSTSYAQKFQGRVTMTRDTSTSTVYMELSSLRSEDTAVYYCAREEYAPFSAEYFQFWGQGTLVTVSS VL: EIVLTQSPATLSLSPGERATLSCRASQNVDHYLAWYQQKPGQAPRLLIYDASHRATGIPARFSGSGSGTDFTLTISSLEPEDFAVYYCQQRSNWPPWTFGQGTKVEIKR | 0.416
* Fab VH1-46_IGHD6-6*01_IGHJ1*01 S102A/S103P/S104F/H111F (APFF) & L6_IGKJ1*01 S28N/S30D/S31H A55S (Fab, V domains shown, Fab made in E. coli: VH in plasmid A (CH1, His6 and Flag tags), VL in plasmid C (kappa CL); also called H:APFF & L:NDH A55S; APFF / NDH/A55S) VH: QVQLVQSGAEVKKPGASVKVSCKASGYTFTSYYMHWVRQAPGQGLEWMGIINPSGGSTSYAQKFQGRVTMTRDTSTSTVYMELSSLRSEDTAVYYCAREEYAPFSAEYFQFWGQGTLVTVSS VL: EIVLTQSPATLSLSPGERATLSCRASQNVDHYLAWYQQKPGQAPRLLIYDASNRSTGIPARFSGSGSGTDFTLTISSLEPEDFAVYYCQQRSNWPPWTFGQGTKVEIKR | 0.588
* Fab VH1-46_IGHD6-6*01_IGHJ1*01 S102A/S103P/S104F/H111F (APFF) & L6_IGKJ1*01 S28N/S30D/S31H A55G (Fab, V domains shown, Fab made in E. coli: VH in plasmid A (CH1, His6 and Flag tags), VL in plasmid C (kappa CL); also called H:APFF & L:NDH A55G; APFF / NDH/A55G) VH: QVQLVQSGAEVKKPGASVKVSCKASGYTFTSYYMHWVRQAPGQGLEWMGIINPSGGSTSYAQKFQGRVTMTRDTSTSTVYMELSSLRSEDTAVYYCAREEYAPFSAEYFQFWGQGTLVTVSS VL: EIVLTQSPATLSLSPGERATLSCRASQNVDHYLAWYQQKPGQAPRLLIYDASNRGTGIPARFSGSGSGTDFTLTISSLEPEDFAVYYCQQRSNWPPWTFGQGTKVEIKR | 0.51

The measurements presented in this section are drawn from patent US20120316071A1.
